- method notes: Quantitative highthroughput screen to assess conditional lethalithy of NOMO1 cells grown in RPMI1640 with untreated serum (RPMI+s) (AID 1963876); also: nearly all actives have a fitted effect of over 35% in size;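 as to viability: 100% = DMSO wells and 0% = empty wells without cells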
- test conditions: NOMO1 AML cells in RPMI+serum, CellTiter-Glo viability, 48 h; series mostly up to 45.8 µM
Inconclusive results are not listed. Activity calls are given as the source filed them. Calls follow the shape of the dose curve; as a rule, active = well fitted cell-killing curve with a large enough effect; inconclusive = small, poorly fitted or top-dose-only effect; inactive = flat fitted curve, though single readings scatter.
Response enum: 1 = active, 0 = inactive

>  <compound>
c1ccc(CCCN2CCN(CCOC(c3ccccc3)c3ccccc3)CC2)cc1

>  <qualitative label>
0

$$$$

Prompt: What did this assay record as the result for "CC1=NN=C(c2ccc(N)cc2)c2cc3c(cc2C1)OCO3" ?
Response: 0

Prompt: What did this assay record as the result for "Cc1c(C(=O)Nc2cccc(C(F)(F)F)c2)cc(-c2ccccc2)n1CCCN1CCOCC1" ?
Response: 0

Prompt: What did this assay record as the result for "C#C[C@]1(O)C=C[C@@H]2[C@@H]3CCC4=CC(=O)CC[C@@H]4[C@H]3CC[C@@]21CC" ?
Response: 0

Prompt: What did this assay record as the result for "O=c1[nH]c2ccccc2n1CCCN1CCC(n2c(=O)[nH]c3cc(Cl)ccc32)CC1" ?
Response: 0

Prompt: What did this assay record as the result for "CN(C)CCN(C)CCc1ccc(Cl)c(Cl)c1" ?
Response: 0

Prompt: What did this assay record as the result for CCC1(c2ccc(N)cc2)CCC(=O)NC1=O (centres undefined) ?
Response: 0

Prompt: What did this assay record as the result for "COC1=CC(C)=C[C@@H](C)[C@@H](O)[C@@H](C)CC(C)=CC=C[C@H](OC)[C@H]([C@@H](C)[C@@H](O)[C@H](C)[C@@]2(O)C[C@@H](O)[C@H](C)[C@@H](C(C)C)O2)OC1=O" ?
Response: 1

Prompt: What did this assay record as the result for "C[C@@H]1C[C@@H]([C@H](O)CC2CC(=O)NC(=O)C2)C(=O)[C@@H](C)C1" ?
Response: 1

Prompt: What did this assay record as the result for "Cc1ccccc1-n1c(Cn2ncc3c(N)ncnc32)nc2cccc(C)c2c1=O" ?
Response: 1

Prompt: What did this assay record as the result for "O=C(Oc1ccc([N+](=O)[O-])cc1)N1CCC(C(O)(c2ccc3c(c2)OCO3)c2ccc3c(c2)OCO3)CC1" ?
Response: 0

Prompt: What did this assay record as the result for "CC(=O)O[C@@]12CO[C@H]1C[C@H](O)[C@@]1(C)C(=O)[C@H](O)C3=C(C)[C@@H](O)C[C@@](O)([C@@H](OC(=O)c4ccccc4)[C@@H]21)C3(C)C" ?
Response: 1

Prompt: What did this assay record as the result for NC1=NC(=O)N2CC12 (centres undefined) ?
Response: 1

Prompt: What did this assay record as the result for "CSCC[C@@H](NC(=O)[C@@H](Cc1ccccc1)NC(=O)CNC(=O)CNC(=O)[C@@H](N)Cc1ccc(O)cc1)C(=O)O" ?
Response: 0

---

- method notes: Quantitative highthroughput screen to assess conditional lethalithy of SEM cells grown in RPMI1640 with dialyzed fetal bovine serum (RPMI+ds) (AID 1963884); also: nearly all actives have a fitted effect of over 35% in size;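 as to viability: 100% = DMSO control wells and 0% = empty wells without cells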
- test conditions: SEM B-ALL cells, RPMI+dialyzed FBS, CellTiter-Glo viability, 48 h; series mostly up to 45.8 µM
Records with an inconclusive call do not appear. The source made the active and inactive calls. The call rests on the fitted dose curve; in most records, active means well fitted cell-killing curve with a large enough effect; inconclusive means small, poorly fitted or top-dose-only effect, or effect the other way; inactive means no such curve, though single readings can be large or run the other way.
Response enum: active, inactive

Reference set, count: 3
>  <compound>
NC1=NC(=O)N2CC12 (stereo not given)

>  <qualitative label>
active

$$$$
>  <compound>
C[C@@H]1CC[C@H]2[C@@H](C)C(=O)O[C@@H]3O[C@@]4(C)CC[C@H]1[C@]32OO4

>  <qualitative label>
inactive

$$$$
>  <compound>
CC(=Cc1csc(C)n1)[C@@H]1C[C@H]2O[C@@H]2CCC[C@H](C)[C@@H](O)[C@@H](C)C(=O)C(C)(C)[C@@H](O)CC(=O)O1

>  <qualitative label>
inactive

$$$$

Prompt: What did this assay record as the result for "CC1=C(O)C(=O)C=C2C1=CC=C1[C@@]2(C)CC[C@@]2(C)[C@@H]3C[C@](C)(C(=O)O)CC[C@]3(C)CC[C@]12C" ?
Response: active

Prompt: What did this assay record as the result for CCCC[N+]1(C)[C@H]2CC(OC(=O)[C@H](CO)c3ccccc3)C[C@H]1[C@H]1O[C@H]12 (stereo not given in full) ?
Response: inactive

---

- method notes: Cellular viability qHTS for adrenocortical cancer (ACC) cell line SW-13 (AID 1963989);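 also: cells grown in serum-free medium with ITS supplement; % is scaled to controls: 0 for no effect and ±100 for the full control effect; nearly all actives have a fitted effect of over 65% in size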
- test conditions: SW-13 ACC cells viability, CellTiter-Glo, 48 h; hits give low values
Results filed as inconclusive are left out.
value type: activity (max response) (%)
Entry rule: numbers only, all in %.

Worked set:
>  <compound>
CN1[C@@H]2CC[C@H]1CC(OC(=O)c1cc(Cl)cc(Cl)c1)C2 (stereo partly drawn)

>  <activity (max response) / %>
-16.8

$$$$
>  <compound>
Cc1c(N)nc([C@H](CC(N)=O)NC[C@@H](N)C(N)=O)nc1C(=O)N[C@H](C(=O)N[C@@H](C)[C@H](O)[C@@H](C)C(=O)N[C@@H](C(=O)NCCc1nc(-c2nc(C(=O)NCCC[S+](C)C)cs2)cs1)[C@@H](C)O)C(O[C@H]1O[C@H](CO)[C@H](O)[C@@H](O)[C@H]1O[C@H]1O[C@H](CO)[C@@H](O)[C@H](OC(N)=O)[C@@H]1O)c1cnc[nH]1 (stereo partly drawn)

>  <activity (max response) / %>
-30.2

$$$$
>  <compound>
c1ccc(CN2CCNCC2)cc1

>  <activity (max response) / %>
-9.53

$$$$

// next item, activity (max response) requested
Record "COP(=S)(OC)Oc1ccc(S(N)(=O)=O)cc1" , field activity (max response): 5.57

---

- method notes: Quantitative highthroughput screen to assess conditional lethalithy of P12 Ichikawa cells grown in RPMI1640 with untreated serum (RPMI+s) (AID 1963881); also: nearly all actives have a fitted effect of over 35% in size; also: potency is read from the fitted curve at half-maximal effect;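 as to viability: 100% = DMSO wells and 0% = empty wells without cells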
- test conditions: ATP luminescence, 48 h; viability; series mostly up to 45.8 µM
Inconclusive results are not listed. Calls of active or inactive are those of the source. The call rests on the fitted dose curve; in most records, active means well fitted cell-killing curve with a large enough effect; inconclusive means small, poorly fitted or top-dose-only effect; inactive means flat fitted curve, though single readings scatter.
value type: Potency

>  <smiles input>
Cc1cccc(C)c1NC(=O)CN1CCCC1=O

>  <measured result>
inactive

$$$$
>  <smiles input>
COc1cc2cc(c1Cl)N(C)C(=O)C[C@H](OC(=O)C(C)C)[C@]1(C)O[C@H]1[C@H](C)[C@@H]1C[C@@](O)(NC(=O)O1)[C@H](OC)C=CC=C(C)C2

>  <measured result>
inactive

$$$$
>  <smiles input>
C[C@]12CC[C@H]3[C@@H](CCC4=CC(=O)CC[C@@]43C)[C@H]1CC[C@H]2O

>  <measured result>
inactive

$$$$
>  <smiles input>
CC[C@H]1C=CC=CC[C@@H](C)[C@H](O)[C@@](C)(O)C(=O)[C@@H](C)[C@H](O)[C@@H](C)C(=O)[C@@H](C)[C@H](O)[C@@H](C)C=CC(=O)O[C@@H]2[C@@H](C)[C@H](CC1)O[C@]1(CC[C@H](C)[C@H](C[C@@H](C)O)O1)[C@H]2C

>  <measured result>
16.6 µM (active)

$$$$

---

- method notes: Viability qHTS for spleen associated tyrosine kinase inhibitor (SYKi) naive MV4-11 cells (AID 1963823); also: nearly all actives have a fitted effect of over 40% in size
- test conditions: MV4-11 AML viability, CellTiter-Glo luminescence, 72 h; series mostly up to 45 µM
- Method: Department of Medicine, Hematology/Oncology University Hospital Frankfurt, Germany. Trials have shown promising clinical activity of the selective SYK inhibitor entospletinib in patients with high expressing HOXA9/MEIS1 acute leukemias. […] 7; Detection; Luminescence; ViewLux plate reader (PerkinElmer). […] 1. Quantitative high-throughput screening (qHTS) of small molecule compounds was conducted on naive SYKi MV4-11 cell line. […] 7. Luminescence was measured on a ViewLux plate reader (PerkinElmer).
Inconclusive results are not listed. Activity calls are given as the source filed them. Calls follow the shape of the dose curve; as a rule, active = well fitted cell-killing curve with a large enough effect; inconclusive = small, poorly fitted or top-dose-only effect, or effect the other way; inactive = no such curve, though single readings can be large or run the other way.
Response enum: active, inactive

Prompt: What did this assay record as the result for C[N+]1(CCF)[C@@H]2CC[C@H]1CC(OC(=O)C(O)(c1ccccc1)c1ccccc1)C2 (some centres undefined) ?
Response: inactive

Prompt: What did this assay record as the result for CN1CCCC1CCOC(c1cc2nccc(C(=O)O)c2[nH]1)c1ccccc1Cl (centres undefined) ?
Response: inactive

Prompt: What did this assay record as the result for "CC(C)(NC(=O)[C@@H](N)Cc1ccc(O)cc1)C(=O)N[C@@H](Cc1cc2ccccc2[nH]1)C(=O)N[C@@H](Cc1ccccc1)C(=O)O" ?
Response: active

Prompt: What did this assay record as the result for CCC(C)(C#N)O[C@@H]1O[C@H](CO)[C@@H](O)[C@H](O)[C@H]1O (some centres undefined) ?
Response: inactive

---

- method notes: Viability qHTS for spleen associated tyrosine kinase inhibitor (SYKi) naive MV4-11 cells (AID 1963823); also: nearly all actives have a fitted effect of over 40% in size
- test conditions: MV4-11 AML viability, CellTiter-Glo luminescence, 72 h; series mostly up to 45 µM
Records with an inconclusive call do not appear. Active and inactive are the calls of the source. Calls come from the whole dose curve; as a rule, active = well fitted cell-killing curve with a large enough effect; inconclusive = small, poorly fitted or top-dose-only effect, or effect the other way; inactive = no such curve, though single readings can be large or run the other way.
Response enum: active, inactive

Reference set, count: 2
>  <molecule>
ClCCN1CCCC1

>  <qualitative label>
inactive

$$$$
>  <molecule>
CO/C1=C/C(C)=C\[C@@H](C)[C@@H](O)[C@@H](C)C/C(C)=C\C=C/[C@H](OC)[C@@H]([C@@H](C)[C@@H](O)[C@H](C)[C@@]2(O)C[C@@H](O)[C@H](C)[C@@H](C(C)C)O2)OC1=O

>  <qualitative label>
active

$$$$

Lab note: next molecule to report on.
Prompt: What did this assay record as the result for CC(C)(C)NCC(O)c1cc(Cl)c(N)c(C(F)(F)F)c1 (stereo not drawn) ?
Response: inactive
